Recorded values, source ChEMBL document CHEMBL3885881.

- Organism: Rattus norvegicus
- ASSAY PROTOCOL: DrugMatrix - Regimen: Daily Repeat
- Type: toxicity, organism-based, Sprague-Dawley
- Parameters: regimen Daily Repeat, gender Male, age 6-8 weeks
- CONDITIONS USED: in vivo, po, 0 mg/kg, 120 h, tissue Blood, route oral GAVAGE, dose level Control, time 5 day, […]
Each entry below carries its recorded HEMATOCRIT.
State just the number; it will be interpreted in %.

Query: State the recorded HEMATOCRIT for this entry: "C#C[C@]1(O)CC[C@H]2[C@@H]3CCc4cc(O)ccc4[C@H]3CC[C@@]21C"
Result: 33.22

Query: Data request, read-out HEMATOCRIT, for "OCCN1CCN(CCCN2c3ccccc3Sc3ccc(C(F)(F)F)cc32)CC1"
Result: 34.67

Query: May I ask what HEMATOCRIT has been recorded for "CC[C@H](C)C(=O)O[C@H]1C[C@@H](C)C=C2C=C[C@H](C)[C@H](CC[C@@H]3C[C@@H](O)CC(=O)O3)[C@H]21" ?
Result: 33.2

Query: Record request: HEMATOCRIT value, item "CC(C)Cc1ccc(CC(=O)O)cc1"
Result: 34.98

Query: Looking for the measured HEMATOCRIT of CN(CCOc1ccc(CC2SC(=O)NC2=O)cc1)c1ccccn1 (centres undefined) , can you help?
Result: 33.9

Query: I would be grateful if you could share the reported HEMATOCRIT for "CCn1cc(C(=O)O)c(=O)c2cc(F)c(N3CCNCC3)nc21" .
Result: 33.22

Query: Give the measured HEMATOCRIT of "COc1ncnc(NS(=O)(=O)c2ccc(N)cc2)c1OC" .
Result: 34.08

Query: Form field: reported HEMATOCRIT of CC(=O)Nc1nnc(S(N)(=O)=O)s1 [ACETAZOLAMIDE]
Result: 34.08

Query: Which measured HEMATOCRIT value corresponds to CC(CCc1ccc(O)cc1)NCCc1ccc(O)c(O)c1 (centres undefined) ?
Result: 46.43
